assay: apoptosis/necrosis detection kit, effect on cell fate; type: cell-based; settings: human; HEK-293 cells, 100 µM, 30 min; read-out: viable cells after the incubation
Readout name: viability at 0.5 h, 100 µM (%)
Answers are plain numbers, in %.

Just so you know, measured viability at 0.5 h, 100 µM for CC[C@H](C)[C@H](NC(=O)[C@H](CCCCN)NC(=O)[C@@H](NC(=O)[C@H](CCC(N)=O)NC(=O)[C@H](CCCNC(=N)N)NC(=O)c1ccc(N=C=S)cc1)[C@@H](C)CC)C(=O)N[C@@H](Cc1c[nH]c2ccccc12)C(=O)N[C@@H](Cc1ccccc1)C(=O)N[C@@H](CCC(N)=O)C(=O)N[C@@H](CC(N)=O)C(=O)N[C@@H](CCCNC(=N)N)C(=O)N[C@@H](CCCNC(=N)N)C(=O)N[C@@H](CCSC)C(=O)N[C@@H](CCCCN)C(=O)N[C@@H](Cc1c[nH]c2ccccc12)C(=O)N[C@@H](CCCCN)C(=O)N[C@@H](CCCCN)C(N)=O [Formula (III)] came out at 97.3
